- System: IA-LM
- MEASUREMENT_PROTOCOL: relative viability (nuclei count vs DMSO), 5 days (fraction); higher = more cells survive
- RUN_PARAMETERS: first compound 0.4 µM
ATTRIBUTE_MEASURED: relative viability

molecule="Cc1sc2c(c1C)C(c1ccc(Cl)cc1)=N[C@@H](CC(=O)OC(C)(C)C)c1nnc(C)n1-2 [JQ1] + C[C@@H](Oc1cc(-c2cnn(C3CCNCC3)c2)cnc1N)c1c(Cl)ccc(F)c1Cl [Crizotinib] (partner 1 µM)" tgt=IA-LM assay_value=0.147
molecule="Cc1sc2c(c1C)C(c1ccc(Cl)cc1)=N[C@@H](CC(=O)OC(C)(C)C)c1nnc(C)n1-2 [JQ1] + CS(=O)(=O)CCNCc1ccc(-c2ccc3ncnc(Nc4ccc(OCc5cccc(F)c5)c(Cl)c4)c3c2)o1 [Lapatinib] (partner 2 µM)" tgt=IA-LM assay_value=0.123
molecule="Cc1sc2c(c1C)C(c1ccc(Cl)cc1)=N[C@@H](CC(=O)OC(C)(C)C)c1nnc(C)n1-2 [JQ1] + C[C@]1(O)C[C@@H](c2nc(-c3ccc4ccc(-c5ccccc5)nc4c3)c3c(N)nccn32)C1 [Linsitinib] (partner 1 µM)" tgt=IA-LM assay_value=0.153
molecule="Cc1sc2c(c1C)C(c1ccc(Cl)cc1)=N[C@@H](CC(=O)OC(C)(C)C)c1nnc(C)n1-2 [JQ1] + CS(=O)(=O)N1CCN(Cc2cc3nc(-c4cccc5[nH]ncc45)nc(N4CCOCC4)c3s2)CC1 [Pictilisib] (partner 1 µM)" tgt=IA-LM assay_value=0.0998

The measurements presented in this section are drawn from the supplement of paper PMC10307832.
